protocol_description: cytotoxicity in HPDE-C7 cells, cell-based, fluorescence, HTS (AID 430);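 also: cells exposed to compound for 48 hours before viability readout; 0% = vehicle and 100% = reference cytotoxic drug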
test_settings: HPDE-C7 pancreatic duct cells viability, at 10 µM, stronger effect = higher value
Among all 63,000 compounds or so, about 1,100 (1.7%) were called active. This excerpt belongs to a sample that is enriched for actives. Measured potencies and affinities stand elsewhere.
compounds and their reported cytotoxicity
experimental_endpoint: cytotoxicity

>>> df
                                   compound             result
0  CC(=O)Nc1ccc(S(=O)(=O)NCc2cn3c(C)csc3n2)cc1   10.5% (inactive)
1  COc1ccc(CNC(=O)c2cc(-c3ccccc3O)n[nH]2)cc1  -14.7% (inactive)
2           CCCC(=O)n1nc(-c2ccc(OC)cc2)nc1N   11.5% (inactive)
3  CN1CC2(Cc3c1ccc1ccccc31)C(=O)OC(C)(C)OC2=O     80.9% (active)
4                   CCCC(=O)Nc1cccc2c1CCCC2    2.9% (inactive)
5  COc1ccc2c(c1)OC(O)(C(F)(F)F)CC2=O (stereo unspecified)   -3.3% (inactive)

###

protocol_description: cytotoxicity in HPDE-C7 cells, cell-based, fluorescence, HTS (AID 430);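 also: cells exposed to compound for 48 hours before viability readout; 0% = vehicle and 100% = reference cytotoxic drug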
test_settings: HPDE-C7 pancreatic duct cells viability, at 10 µM
Screen size: about 63,000 compounds; about 1,100 (1.7%) were called active. Rule as the data show it: active = cytotoxicity above about 50%; inactive = the rest. This is one part of a sample in which actives are shown more often than they occur. Potency and affinity values are given separately.
Classes used: active, inactive

>>> df
                                    molecule  assigned_class
 0  Cc1cccc(OCCC(=O)Nc2ccc(S(=O)(=O)N3CCCC3)cc2)c1        inactive
 1  CC(C)c1nc(SCc2ccccn2)c2c(=O)n(C)c(=O)n(C)c2n1        inactive
 2  Cc1cc(C(=O)CN2C(=O)c3ccccc3C2=O)c(C)n1C1CC1        inactive
 3  CC1(C)CC(=O)c2sc(NC(=O)CN3C(=O)CCC3=O)nc2C1        inactive
 4  CCN(CC)CCNC(=O)Cn1nc(Cc2ccccc2)c2ccccc2c1=O        inactive
 5   CCOc1ccccc1N1CC(O)=C(c2nc3ccccc3s2)C1=N          active
 6  CC(C)c1nc(SCc2c(F)cccc2Cl)c2c(=O)n(C)c(=O)n(C)c2n1          active
 7  CN(Cc1ccccc1)C(=O)CSc1nnc(-c2ccco2)n1-c1ccccc1        inactive
 8  Cc1c(C(=O)NCCC2=CCCCC2)oc2ccc(S(=O)(=O)N3CCOCC3)cc12          active
 9  Cc1cnc(-c2nnc(N(C)C(=O)C3CCCO3)s2)cn1 (stereo not given)        inactive
10  COc1ccc(N2CC(O)=C(c3nc4ccccc4s3)C2=N)c(OC)c1        inactive
11        CCCOc1ccc(NC2=CC(=O)CC(C)(C)C2)cc1        inactive
12  CCN(CCCNC(=O)CC(C(=O)N1CCc2ccccc21)n1ccnc1)c1ccccc1 (stereo not given)        inactive
13    CCc1cc(C(=O)Cc2nc3ccccc3[nH]2)c(O)cc1O        inactive
14         Cc1ccc2oc(=O)cc(CN3CCC(C)CC3)c2c1        inactive
15  Cc1cc(NC(=O)CCC(=O)N(c2ccccc2)C(C(=O)NCC2CCCO2)c2cccnc2)no1 (stereo not given)        inactive
16  CCn1c2ccccc2c2nnc(SCCCn3c(=O)[nH]c4ccccc43)nc21        inactive
17  CC(C)C(c1nnnn1Cc1ccc2c(c1)OCO2)N1CCN(c2ccccc2)CC1 (stereo not given)        inactive
18         CCOC(=O)CCNC(=O)CNC(=O)OCc1ccccc1        inactive
19  O=C(O)C1CCCCC1C(=O)OCCCCOC(=O)C1CCCCC1C(=O)O (stereo not given)        inactive
20                 CC(=O)Nc1ccc(C)cc1NC(C)=O        inactive
21  O=c1c2ccccc2[nH]c(=S)n1CCN1CCN(Cc2ccccc2)CC1        inactive
22  CC(NC(=O)c1noc2c1CCCC2)c1ccccc1 (stereo not given)        inactive
23  COc1ccccc1NC(=O)C(O)C(O)C(=O)Nc1ccccc1OC (stereo not given)        inactive
24  CCOc1cc(C2c3c(n[nH]c3C)C(=O)N2c2ccc(Br)cc2)ccc1O (stereo not given)        inactive
25  COc1ccc(NC(=O)c2ccc(Cl)c(S(=O)(=O)N3CCc4ccccc4C3)c2)cn1          active
26  Cc1c(C(=O)NCCc2ccccc2)oc2ccc(S(=O)(=O)N3CCOCC3)cc12        inactive
27  C=CCn1c2ccccc2c2nnc(SCCCn3c(=O)[nH]c4ccccc43)nc21          active
28  Cc1c(C(=O)NCCC2=CCCCC2)oc2ccc(S(=O)(=O)N3CCC4(CC3)OCCO4)cc12        inactive
29  Cc1nc(SCc2c(F)cccc2Cl)c2c(=O)n(C)c(=O)n(C)c2n1        inactive
30         CCc1cc(C(=O)Cc2ccc(F)cc2)c(O)cc1O          active
31          CCc1cc(C(=O)COc2ccccc2F)c(O)cc1O        inactive
32  COc1ccc(C(O)CNc2ccc(C)cc2)cc1 (stereo not given)        inactive
33            CCOc1ccc2ccccc2c1C(=O)N1CCOCC1        inactive
34  COc1ccc(C2CC(c3c(O)cc(C)oc3=O)=NCCS2)c(OC)c1 (stereo not given)          active
35  COc1cc(C2c3c(n[nH]c3C)C(=O)N2c2ccc(Br)cc2)ccc1O (stereo not given)        inactive
36  Cc1cc(Nc2nc3ccccc3[nH]c2=O)n(-c2ccccc2)n1        inactive
37  CCCc1cc(C(=O)Cc2ccc(C(=O)OCC)o2)c(O)cc1O        inactive
38  Cc1c(C(=O)Nc2cccc(Cl)c2)oc2ccc(S(=O)(=O)N3CCC4(CC3)OCCO4)cc12          active
39  Cc1csc(NC(=O)C2CCC(C)(C(=O)O)C2(C)C)n1 (stereo not given)        inactive
40    O=C(c1cccc(F)c1)N1CCN(c2cccc(Cl)c2)CC1        inactive
41  CN(C)C(=O)N1CCN(C(=O)c2ccccc2Sc2ccccc2C#N)CC1        inactive
42  O=C(c1ccc(F)cc1)C1CCN(CCn2c(=O)[nH]c3ccccc3c2=O)CC1        inactive
43        COc1cc(CNc2ccc(C)c(C)c2)cc(OC)c1OC        inactive
44               Cc1cc(Nc2cc(C)on2)n2ncnc2n1        inactive

Where these numbers come from: PubChem BioAssay AID430
